Molecular target: T1, recombinant rat sclerostin (rat, UniProt Q99P67 24-213, limits assumed)
T1 sequence (looked up): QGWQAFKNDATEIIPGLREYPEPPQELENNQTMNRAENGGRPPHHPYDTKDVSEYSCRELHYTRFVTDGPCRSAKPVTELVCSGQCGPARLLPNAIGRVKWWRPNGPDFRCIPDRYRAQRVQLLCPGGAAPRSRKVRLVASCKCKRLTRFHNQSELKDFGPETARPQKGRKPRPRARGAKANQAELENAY
Assay: SPR
Item-by-item account of koff

Binder	Measurement unit	koff
AE10-6-AM5 (antibody, V domains shown, converted into IgG) VH: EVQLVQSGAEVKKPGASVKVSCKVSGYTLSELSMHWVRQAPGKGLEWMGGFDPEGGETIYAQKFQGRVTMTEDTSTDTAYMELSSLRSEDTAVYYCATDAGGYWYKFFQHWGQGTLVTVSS VL: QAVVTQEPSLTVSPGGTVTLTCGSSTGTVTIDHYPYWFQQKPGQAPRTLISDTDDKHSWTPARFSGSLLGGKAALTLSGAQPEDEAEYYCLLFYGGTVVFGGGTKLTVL	s⁻¹	7.5e-05
AE10-6-AM6 (antibody, V domains shown, converted into IgG; also called rHC + LC S4 clone 119) VH: EVQLVQSGAEVKKPGASVKVSCKVSGYTLSELSMHWVRQAPGKGLEWMGGFDPEGGETIYAQKFQGRVTMTEDTSTDTAYMELSSLRSEDTAVYYCATDTEGYWEKFFQHWGQGTLVTVSS VL: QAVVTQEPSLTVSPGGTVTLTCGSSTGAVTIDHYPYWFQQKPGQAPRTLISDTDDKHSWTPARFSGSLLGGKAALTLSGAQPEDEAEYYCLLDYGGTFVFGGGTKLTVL	s⁻¹	0.00018
AE10-6-AM3 (antibody, V domains shown, converted into IgG) VH: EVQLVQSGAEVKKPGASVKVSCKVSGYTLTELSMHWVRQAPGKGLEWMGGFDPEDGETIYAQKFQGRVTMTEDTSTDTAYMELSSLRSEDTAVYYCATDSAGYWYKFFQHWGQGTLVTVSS VL: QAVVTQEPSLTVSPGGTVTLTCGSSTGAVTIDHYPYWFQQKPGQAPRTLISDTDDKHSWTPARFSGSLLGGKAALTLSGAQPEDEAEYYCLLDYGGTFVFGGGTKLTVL	s⁻¹	1.9e-05
AE10-6-AM8 (antibody, V domains shown, converted into IgG) VH: EVQLVQSGAEVKKPGASVKVSCKVSGYTLSELSIHWVRQAPGKGLEWMGGFDPEDGETIYAQKFQGRVTMTEDTSTDTAYMELSSLRSEDTAVYYCATDSAGYWYKFFQHWGQGTLVTVSS VL: QAVVTQEPSLTVSPGGTVTLTCGSSTGAVTIDHYPYWFQQKPGQAPRTLISDTDDKHSWTPARFSGSLLGGKAALTLSGAQPEDEAEYYCLLDYGGSFVFGGGTKLTVL	s⁻¹	5.9e-05
AE10-6-AM2 (antibody, V domains shown, converted into IgG; also called rHC + LC S4 clone 102) VH: EVQLVQSGAEVKKPGASVKVSCKVSGYTLTELSMHWVRQAPGKGLEWMGGFDPEAGETIYAQKFQGRVTMTEDTSTDTAYMELSSLRSEDTAVYYCATDGELYWYKFFQHWGQGTLVTVSS VL: QAVVTQEPSLTVSPGGTVTLTCGSSTGAVTIWHYPYWFQQKPGQAPRTLISDTNDKHSWTPARFSGSLLGGKAALTLSGAQPEDEAEYYCLLDYGGSFVFGGGTKLTVL	s⁻¹	0.00088
AE10-6-AM7 (antibody, V domains shown, converted into IgG; also called rHC + LC S4 clone 131) VH: EVQLVQSGAEVKKPGASVKVSCKVSGYTLTELSMHWVRQAPGKGLEWMGGFDPEDGETIYAQKFQGRVTMTEDTSTDTAYMELSSLRSEDTAVYYCATDTVGYWEKFFQHWGQGTLVTVSS VL: QAVVTQEPSLTVSPGGTVTLTCGSSTGTVTIDHYPYWFQQKPGQAPRTLISDTDDKHSWTPARFSGSLLGGKAALTLSGAQPEDEAEYYCLLDYGGRFVFGGGTKLTVL	s⁻¹	4.6e-05
